viability, T/C for assorted compounds
Tested on: 596521-263-R-J1-PDC complex spheroids, viability % of control;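 further: spheroids exposed to drugs for 7 days before viability reading; 100% = DMSO vehicle control viability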
Experiment: Anticancer human tumor 596521-263-R-J1-PDC patient-derived soft tissue sarcoma cell line growth inhibition [GQUAD]
Conditions: second compound 3.16 µM; first compound 3.16 µM; active compounds read low
RECORDED ENDPOINT: viability, T/C (%)

- COMPOUND: "CC1COCCN1c1cc(C2(S(C)(=N)=O)CC2)nc(-c2ccnc3[nH]ccc23)n1 (stereo unspecified) + CN(C)c1ccc(Nc2c3ccc(NC(=O)CCN4CCCC4)cc3nc3cc(NC(=O)CCN4CCCC4)ccc23)cc1"
  ASSAYED TARGET: "596521-263-R-J1-PDC complex spheroids, viability % of control"
  RECORDED ENDPOINT: "viability, T/C"
  QUANTITATIVE READOUT: 61.4
- COMPOUND: "COc1cc(C2c3cc4c(cc3C(OC3OC5COC(C)OC5C(O)C3O)C3COC(=O)C23)OCO4)cc(OC)c1O (stereo unspecified) + CN(C)c1ccc(Nc2c3ccc(NC(=O)CCN4CCCC4)cc3nc3cc(NC(=O)CCN4CCCC4)ccc23)cc1"
  ASSAYED TARGET: "596521-263-R-J1-PDC complex spheroids, viability % of control"
  RECORDED ENDPOINT: "viability, T/C"
  QUANTITATIVE READOUT: 49.7
- COMPOUND: "CC1COCCN1c1cc(C2(S(C)(=N)=O)CC2)nc(-c2ccnc3[nH]ccc23)n1 (stereo unspecified) + Cc1[nH]c2ccc(F)cc2c1-c1nc2c3cccnc3c3ncccc3c2[nH]1"
  ASSAYED TARGET: "596521-263-R-J1-PDC complex spheroids, viability % of control"
  RECORDED ENDPOINT: "viability, T/C"
  QUANTITATIVE READOUT: 62.6
- COMPOUND: "CC(C)n1c(=O)n(C)c2cnc3cc(F)c(-c4ccc(OCCCN5CCCCC5)nc4)cc3c21 + Cc1cnc(CNC(=O)c2c(=O)c3ccc(N4CCCN(C)CC4)nc3n3c2sc2ccccc23)cn1"
  ASSAYED TARGET: "596521-263-R-J1-PDC complex spheroids, viability % of control"
  RECORDED ENDPOINT: "viability, T/C"
  QUANTITATIVE READOUT: 42.5
- COMPOUND: "O=C(c1cc(Cc2n[nH]c(=O)c3ccccc23)ccc1F)N1CCN(C(=O)C2CC2)CC1 + Cc1[nH]c2ccc(F)cc2c1-c1nc2c3cccnc3c3ncccc3c2[nH]1"
  ASSAYED TARGET: "596521-263-R-J1-PDC complex spheroids, viability % of control"
  RECORDED ENDPOINT: "viability, T/C"
  QUANTITATIVE READOUT: 75.4
- COMPOUND: "O=c1[nH]cc(F)c(=O)[nH]1 + CN(C)c1ccc(Nc2c3ccc(NC(=O)CCN4CCCC4)cc3nc3cc(NC(=O)CCN4CCCC4)ccc23)cc1"
  ASSAYED TARGET: "596521-263-R-J1-PDC complex spheroids, viability % of control"
  RECORDED ENDPOINT: "viability, T/C"
  QUANTITATIVE READOUT: 110
- COMPOUND: "COc1cc(C2c3cc4c(cc3C(OC3OC5COC(C)OC5C(O)C3O)C3COC(=O)C23)OCO4)cc(OC)c1O (stereo unspecified) + Cc1[nH]c2ccc(F)cc2c1-c1nc2c3cccnc3c3ncccc3c2[nH]1"
  ASSAYED TARGET: "596521-263-R-J1-PDC complex spheroids, viability % of control"
  RECORDED ENDPOINT: "viability, T/C"
  QUANTITATIVE READOUT: 63.6
- COMPOUND: "COc1cc(C2c3cc4c(cc3C(OC3OC5COC(C)OC5C(O)C3O)C3COC(=O)C23)OCO4)cc(OC)c1O (stereo unspecified) + Cc1cnc(CNC(=O)c2c(=O)c3ccc(N4CCCN(C)CC4)nc3n3c2sc2ccccc23)cn1"
  ASSAYED TARGET: "596521-263-R-J1-PDC complex spheroids, viability % of control"
  RECORDED ENDPOINT: "viability, T/C"
  QUANTITATIVE READOUT: 50.4
- COMPOUND: "Nc1ccn(C2OC(CO)C(O)C2(F)F)c(=O)n1 (stereo unspecified) + Cc1[nH]c2ccc(F)cc2c1-c1nc2c3cccnc3c3ncccc3c2[nH]1"
  ASSAYED TARGET: "596521-263-R-J1-PDC complex spheroids, viability % of control"
  RECORDED ENDPOINT: "viability, T/C"
  QUANTITATIVE READOUT: 42.7
- COMPOUND: "CC(C)n1c(=O)n(C)c2cnc3cc(F)c(-c4ccc(OCCCN5CCCCC5)nc4)cc3c21 + CN(C)c1ccc(Nc2c3ccc(NC(=O)CCN4CCCC4)cc3nc3cc(NC(=O)CCN4CCCC4)ccc23)cc1"
  ASSAYED TARGET: "596521-263-R-J1-PDC complex spheroids, viability % of control"
  RECORDED ENDPOINT: "viability, T/C"
  QUANTITATIVE READOUT: 77
- COMPOUND: "COc1cccc2c1C(=O)c1c(O)c3c(c(O)c1C2=O)CC(O)(C(=O)CO)CC3OC1CC(N)C(O)C(C)O1 (stereo unspecified) + Cc1cnc(CNC(=O)c2c(=O)c3ccc(N4CCCN(C)CC4)nc3n3c2sc2ccccc23)cn1"
  ASSAYED TARGET: "596521-263-R-J1-PDC complex spheroids, viability % of control"
  RECORDED ENDPOINT: "viability, T/C"
  QUANTITATIVE READOUT: 23.8
- COMPOUND: "C=CCn1c(=O)c2cnc(Nc3ccc(N4CCN(C)CC4)cc3)nc2n1-c1cccc(C(C)(C)O)n1 + Cc1[nH]c2ccc(F)cc2c1-c1nc2c3cccnc3c3ncccc3c2[nH]1"
  ASSAYED TARGET: "596521-263-R-J1-PDC complex spheroids, viability % of control"
  RECORDED ENDPOINT: "viability, T/C"
  QUANTITATIVE READOUT: 66.8
- COMPOUND: "COc1ccc([C@@H](O)c2cc(-c3ncnc4cc(N5CCOCC5)ccc34)c(F)cc2Cl)nn1 + Cc1[nH]c2ccc(F)cc2c1-c1nc2c3cccnc3c3ncccc3c2[nH]1"
  ASSAYED TARGET: "596521-263-R-J1-PDC complex spheroids, viability % of control"
  RECORDED ENDPOINT: "viability, T/C"
  QUANTITATIVE READOUT: 64.5
- COMPOUND: "CC1COCCN1c1cc(-c2ccnn2C)c2ccnc(-c3ccn[nH]3)c2n1 (stereo unspecified) + Cc1[nH]c2ccc(F)cc2c1-c1nc2c3cccnc3c3ncccc3c2[nH]1"
  ASSAYED TARGET: "596521-263-R-J1-PDC complex spheroids, viability % of control"
  RECORDED ENDPOINT: "viability, T/C"
  QUANTITATIVE READOUT: 36.3
- COMPOUND: "CCCS(=O)(=O)Nc1ccc(F)c(C(=O)c2c[nH]c3ncc(-c4ccc(Cl)cc4)cc23)c1F + CN(C)c1ccc(Nc2c3ccc(NC(=O)CCN4CCCC4)cc3nc3cc(NC(=O)CCN4CCCC4)ccc23)cc1"
  ASSAYED TARGET: "596521-263-R-J1-PDC complex spheroids, viability % of control"
  RECORDED ENDPOINT: "viability, T/C"
  QUANTITATIVE READOUT: 56.9
- COMPOUND: "C=CC(=O)N1CCN(c2nc(=O)n(-c3c(C)ccnc3C(C)C)c3nc(-c4c(O)cccc4F)c(F)cc23)C(C)C1 (stereo unspecified) + Cc1[nH]c2ccc(F)cc2c1-c1nc2c3cccnc3c3ncccc3c2[nH]1"
  ASSAYED TARGET: "596521-263-R-J1-PDC complex spheroids, viability % of control"
  RECORDED ENDPOINT: "viability, T/C"
  QUANTITATIVE READOUT: 90.8
- COMPOUND: "COc1cccc2c1C(=O)c1c(O)c3c(c(O)c1C2=O)CC(O)(C(=O)CO)CC3OC1CC(N)C(O)C(C)O1 (stereo unspecified) + Cc1[nH]c2ccc(F)cc2c1-c1nc2c3cccnc3c3ncccc3c2[nH]1"
  ASSAYED TARGET: "596521-263-R-J1-PDC complex spheroids, viability % of control"
  RECORDED ENDPOINT: "viability, T/C"
  QUANTITATIVE READOUT: 25.7
- COMPOUND: "C#Cc1c(F)ccc2cc(O)cc(-c3ncc4c(N5CC6CCC(C5)N6)nc(OCC56CCCN5CC(F)C6)nc4c3F)c12 (stereo unspecified) + Cc1cnc(CNC(=O)c2c(=O)c3ccc(N4CCCN(C)CC4)nc3n3c2sc2ccccc23)cn1"
  ASSAYED TARGET: "596521-263-R-J1-PDC complex spheroids, viability % of control"
  RECORDED ENDPOINT: "viability, T/C"
  QUANTITATIVE READOUT: 50.9
- COMPOUND: "CC(C)(O)C1CCC(Nc2ccc3ncc(-c4cccc(C(F)(F)F)c4)n3n2)CC1 (stereo unspecified) + Cc1[nH]c2ccc(F)cc2c1-c1nc2c3cccnc3c3ncccc3c2[nH]1"
  ASSAYED TARGET: "596521-263-R-J1-PDC complex spheroids, viability % of control"
  RECORDED ENDPOINT: "viability, T/C"
  QUANTITATIVE READOUT: 95.2
- COMPOUND: "CC(=O)O[C@H]1C(=O)[C@@]2(C)[C@H]([C@H](OC(=O)c3ccccc3)[C@]3(O)C[C@H](OC(=O)[C@H](O)[C@@H](NC(=O)c4ccccc4)c4ccccc4)C(C)=C1C3(C)C)[C@]1(OC(C)=O)CO[C@@H]1C[C@@H]2O + Cc1[nH]c2ccc(F)cc2c1-c1nc2c3cccnc3c3ncccc3c2[nH]1"
  ASSAYED TARGET: "596521-263-R-J1-PDC complex spheroids, viability % of control"
  RECORDED ENDPOINT: "viability, T/C"
  QUANTITATIVE READOUT: 0.34
- COMPOUND: "O=C(NO)c1cnc(N2CCN(S(=O)(=O)c3ccc4ccccc4c3)CC2)nc1 + Cc1cnc(CNC(=O)c2c(=O)c3ccc(N4CCCN(C)CC4)nc3n3c2sc2ccccc23)cn1"
  ASSAYED TARGET: "596521-263-R-J1-PDC complex spheroids, viability % of control"
  RECORDED ENDPOINT: "viability, T/C"
  QUANTITATIVE READOUT: 0.4
